Test system: HL-1
TEST PROTOCOL: relative cell viability (CellTiter-Glo) vs DMSO control (% of DMSO control); higher = more viable cells
EXPERIMENTAL CONTEXT: oxygen condition: hypoxia 48 h (1% O2) + reoxygenation 24 h; 40 nM
Where a name gives a salt, the structure may show the parent alone.
Threshold check on relative cell viability: strictly below 100 is TRUE; on or above 100 is FALSE.

>  <MOLECULE>
CCC1=C(C)CN(C(=O)NCCc2ccc(S(=O)(=O)NC(=O)N[C@H]3CC[C@H](C)CC3)cc2)C1=O [Glimepiride]

>  <ASSIGNED LABEL>
TRUE

$$$$
>  <MOLECULE>
CN(CCOc1ccc(CC2SC(=O)NC2=O)cc1)c1ccccn1 (stereo not drawn) [Rosiglitazone HCl]

>  <ASSIGNED LABEL>
FALSE

$$$$
>  <MOLECULE>
C[C@H](CCC(=O)O)[C@H]1CC[C@H]2[C@@H]3CC[C@@H]4C[C@H](O)CC[C@]4(C)[C@H]3CC[C@]12C

>  <ASSIGNED LABEL>
FALSE

$$$$
>  <MOLECULE>
Cc1ccc(O)c([C@H](CCN(C(C)C)C(C)C)c2ccccc2)c1 [Tolterodine tartrate]

>  <ASSIGNED LABEL>
FALSE

$$$$

----------
Tested on: HL-1
TEST PROTOCOL: relative cell viability (CellTiter-Glo) vs DMSO control (% of DMSO control); higher = more viable cells
EXPERIMENTAL CONTEXT: oxygen condition: hypoxia 48 h (1% O2) + reoxygenation 24 h; 40 nM
Where a name gives a salt, the structure may show the parent alone.
Measured relative cell viability accompanies every entry in the list below.

>  <COMPOUND>
CNS(=O)(=O)CCc1ccc2[nH]cc(C3CCN(C)CC3)c2c1 [Naratriptan HCl]

>  <relative cell viability>
97.1

$$$$
>  <COMPOUND>
CCN[C@H]1C[C@H](C)S(=O)(=O)c2sc(S(N)(=O)=O)cc21 [Dorzolamide HCL]

>  <relative cell viability>
111

$$$$
>  <COMPOUND>
COc1cccc2c1C(=O)c1c(O)c3c(c(O)c1C2=O)C[C@@](O)(C(C)=O)C[C@@H]3O[C@H]1C[C@H](N)[C@H](O)[C@H](C)O1 [Daunorubicin HCl]

>  <relative cell viability>
56.7

$$$$
>  <COMPOUND>
CN(C)CCN(Cc1ccccc1)c1ccccn1 [Tripelennamine HCl]

>  <relative cell viability>
97.8

$$$$
>  <COMPOUND>
Cc1c(N(C)C)c(=O)n(-c2ccccc2)n1C [Amidopyrine]

>  <relative cell viability>
107

$$$$
>  <COMPOUND>
CC[C@H](C)C(=O)O[C@H]1CCC=C2C=C[C@H](C)[C@H](CC[C@@H]3C[C@@H](O)CC(=O)O3)[C@H]21 [Mevastatin]

>  <relative cell viability>
112

$$$$
>  <COMPOUND>
Cn1ccnc1S [Methimazole]

>  <relative cell viability>
102

$$$$
>  <COMPOUND>
CCCCOc1cc(C(=O)NCCN(CC)CC)c2ccccc2n1 [Dibucaine HCL]

>  <relative cell viability>
103

$$$$
>  <COMPOUND>
CCN(CC)CC(=O)Nc1c(C)cccc1C [Lidocaine]

>  <relative cell viability>
111

$$$$
>  <COMPOUND>
NCC(=O)CCC(=O)O [5-Aminolevulinic acid hydrochloride]

>  <relative cell viability>
101

$$$$
>  <COMPOUND>
C[C@@H](O)[C@H]1C(=O)N2C(C(=O)OCOC(=O)C(C)(C)C)=C(SC3CN(C4=NCCS4)C3)[C@H](C)[C@H]12 [Tebipenem pivoxil]

>  <relative cell viability>
98.3

$$$$
>  <COMPOUND>
CCOC(=O)c1c(C)n(C)c2ccc(O)cc12 [Mecarbinate]

>  <relative cell viability>
102

$$$$
>  <COMPOUND>
N=C(N)N/N=C/c1c(Cl)cccc1Cl [Guanabenz acetate]

>  <relative cell viability>
96.3

$$$$
>  <COMPOUND>
NC(=O)N1c2ccccc2C=Cc2ccccc21 [Carbamazepine]

>  <relative cell viability>
97.1

$$$$
>  <COMPOUND>
CCCc1cc(=O)[nH]c(=S)[nH]1 [Propylthiouracil]

>  <relative cell viability>
106

$$$$
>  <COMPOUND>
CC(C)NC[C@H](O)COc1ccc(CCOCC2CC2)cc1 [Levobetaxolol HCl]

>  <relative cell viability>
110

$$$$
>  <COMPOUND>
CC[C@@H]1/C=C(\C)C[C@H](C)C[C@H](OC)[C@H]2O[C@@](O)(C(=O)C(=O)N3CCCC[C@H]3C(=O)O[C@H](/C(C)=C/[C@@H]3CC[C@H](Cl)[C@H](OC)C3)[C@H](C)[C@@H](O)CC1=O)[C@H](C)C[C@@H]2OC [Pimecrolimus]

>  <relative cell viability>
98.7

$$$$
>  <COMPOUND>
Nc1cc(N2CCCCC2)nc(N)[n+]1[O-] [Minoxidil]

>  <relative cell viability>
108

$$$$

----------
System: HL-1
TEST PROTOCOL: relative cell viability (CellTiter-Glo) vs DMSO control (% of DMSO control); higher = more viable cells
EXPERIMENTAL CONTEXT: oxygen condition: hypoxia 48 h (1% O2) + reoxygenation 24 h; 200 nM
Where a name gives a salt, the structure may show the parent alone.
Here, each record is paired with measured relative cell viability data.

>  <MOLECULE>
OCCOCCN1CCN(C(c2ccccc2)c2ccc(Cl)cc2)CC1 (centres undefined) [Hydroxyzine 2HCl]

>  <TGT>
HL-1

>  <relative cell viability>
107

$$$$
>  <MOLECULE>
C=C1CC[C@H](O)C/C1=C/C=C1\CCC[C@]2(C)[C@@H]([C@H](C)CCCC(C)(C)O)CC[C@@H]12

>  <TGT>
HL-1

>  <relative cell viability>
106

$$$$
>  <MOLECULE>
Clc1ccc(C(c2ccccc2Cl)C(Cl)Cl)cc1 (centres undefined)

>  <TGT>
HL-1

>  <relative cell viability>
105

$$$$
>  <MOLECULE>
CC1=NN(c2ccc(C)c(C)c2)C(=O)/C1=N\Nc1cccc(-c2cccc(C(=O)O)c2)c1O

>  <TGT>
HL-1

>  <relative cell viability>
86

$$$$
>  <MOLECULE>
COCCOC(=O)C1=C(C)NC(C)=C(C(=O)OC(C)C)C1c1cccc([N+](=O)[O-])c1 (centres undefined)

>  <TGT>
HL-1

>  <relative cell viability>
108

$$$$
>  <MOLECULE>
CCCCCCCN(CC)CCCC(O)c1ccc(NS(C)(=O)=O)cc1 (centres undefined) [Ibutilide fumarate]

>  <TGT>
HL-1

>  <relative cell viability>
95.7

$$$$
>  <MOLECULE>
CC(C)n1c(/C=C/C(O)CC(O)CC(=O)O)c(-c2ccc(F)cc2)c2ccccc21 (centres undefined) [Fluvastatin sodium]

>  <TGT>
HL-1

>  <relative cell viability>
57.3

$$$$
>  <MOLECULE>
COC(=O)[C@H](Cc1ccccc1)NC(=O)[C@@H](N)CC(=O)O

>  <TGT>
HL-1

>  <relative cell viability>
98

$$$$
>  <MOLECULE>
O=C1c2ccccc2C(=O)C1c1ccccc1

>  <TGT>
HL-1

>  <relative cell viability>
105

$$$$
>  <MOLECULE>
Cc1cnc(C(=O)NCCc2ccc(S(=O)(=O)NC(=O)NC3CCCCC3)cc2)cn1 [Glipizide]

>  <TGT>
HL-1

>  <relative cell viability>
108

$$$$
>  <MOLECULE>
CN(Cc1cnc2nc(N)nc(N)c2n1)c1ccc(C(=O)N[C@@H](CCC(=O)O)C(=O)O)cc1 [Abitrexate]

>  <TGT>
HL-1

>  <relative cell viability>
51.7

$$$$
>  <MOLECULE>
CC(COc1ccccc1)N(CCCl)Cc1ccccc1 (centres undefined) [Phenoxybenzamine HCl]

>  <TGT>
HL-1

>  <relative cell viability>
97.6

$$$$
>  <MOLECULE>
CCc1ccc(CCOc2ccc(CC3SC(=O)NC3=O)cc2)nc1 (centres undefined) [Pioglitazone]

>  <TGT>
HL-1

>  <relative cell viability>
110

$$$$
>  <MOLECULE>
CCCCc1oc2ccc(NS(C)(=O)=O)cc2c1C(=O)c1ccc(OCCCN(CCCC)CCCC)cc1 [Dronedarone HCl]

>  <TGT>
HL-1

>  <relative cell viability>
99.6

$$$$
>  <MOLECULE>
NC(=O)c1cccnc1 [Nicotinamide]

>  <TGT>
HL-1

>  <relative cell viability>
97.2

$$$$
>  <MOLECULE>
CCN(CC)CC#CCOC(=O)C(O)(c1ccccc1)C1CCCCC1 (centres undefined) [Oxybutynin chloride]

>  <TGT>
HL-1

>  <relative cell viability>
99.1

$$$$
>  <MOLECULE>
O=C(O)/C=C/c1ccc(Cn2ccnc2)cc1 [Ozagrel HCl]

>  <TGT>
HL-1

>  <relative cell viability>
102

$$$$
>  <MOLECULE>
Nc1nc2[nH]cc(CCc3ccc(C(=O)N[C@@H](CCC(=O)O)C(=O)O)cc3)c2c(=O)[nH]1

>  <TGT>
HL-1

>  <relative cell viability>
104

$$$$
>  <MOLECULE>
CCC1=C(C)CN(C(=O)NCCc2ccc(S(=O)(=O)NC(=O)N[C@H]3CC[C@H](C)CC3)cc2)C1=O [Glimepiride]

>  <TGT>
HL-1

>  <relative cell viability>
96.3

$$$$
>  <MOLECULE>
O=c1oc2cc(O)ccc2s1

>  <TGT>
HL-1

>  <relative cell viability>
104

$$$$
>  <MOLECULE>
CN(C)CCc1c[nH]c2ccc(CS(=O)(=O)N3CCCC3)cc12 [Almotriptan malate]

>  <TGT>
HL-1

>  <relative cell viability>
99

$$$$
>  <MOLECULE>
CCN(CC)C(=O)C1(c2ccccc2)CC1CN (centres undefined) [Milnacipran HCl]

>  <TGT>
HL-1

>  <relative cell viability>
108

$$$$
>  <MOLECULE>
CCCN(CCC)CCc1cccc2c1CC(=O)N2 [Ropinirole HCl]

>  <TGT>
HL-1

>  <relative cell viability>
117

$$$$
>  <MOLECULE>
N[C@@H](Cc1cc(I)c(Oc2ccc(O)c(I)c2)c(I)c1)C(=O)O [Liothyronine Sodium]

>  <TGT>
HL-1

>  <relative cell viability>
108

$$$$
>  <MOLECULE>
COc1cc2c(cc1OC)CC(=O)N(CCCN(C)C[C@H]1Cc3cc(OC)c(OC)cc31)CC2 [Ivabradine HCl]

>  <TGT>
HL-1

>  <relative cell viability>
106

$$$$
>  <MOLECULE>
CCOc1ccccc1OC(c1ccccc1)C1CNCCO1 (centres undefined) [Reboxetine mesylate]

>  <TGT>
HL-1

>  <relative cell viability>
102

$$$$
>  <MOLECULE>
CCCCOc1cc(C(=O)OCCN(CC)CC)ccc1N [Oxybuprocaine HCl]

>  <TGT>
HL-1

>  <relative cell viability>
106

$$$$
>  <MOLECULE>
NC(CO)C(=O)NNCc1ccc(O)c(O)c1O (centres undefined) [Benserazide]

>  <TGT>
HL-1

>  <relative cell viability>
101

$$$$
>  <MOLECULE>
Cc1cc(C#N)cc(C)c1Oc1nc(Nc2ccc(C#N)cc2)nc(N)c1Br

>  <TGT>
HL-1

>  <relative cell viability>
103

$$$$
>  <MOLECULE>
CNC(=C[N+](=O)[O-])NCCSCc1ccc(CN(C)C)o1

>  <TGT>
HL-1

>  <relative cell viability>
102

$$$$
>  <MOLECULE>
CCCC1O[C@@H]2C[C@H]3[C@@H]4CCC5=CC(=O)C=C[C@]5(C)[C@H]4[C@@H](O)C[C@]3(C)[C@]2(C(=O)CO)O1 (some centres undefined) [Budesonide]

>  <TGT>
HL-1

>  <relative cell viability>
102

$$$$
>  <MOLECULE>
CC(C)(Sc1cc(C(C)(C)C)c(O)c(C(C)(C)C)c1)Sc1cc(C(C)(C)C)c(O)c(C(C)(C)C)c1

>  <TGT>
HL-1

>  <relative cell viability>
105

$$$$
>  <MOLECULE>
CN1C2=CC(=O)/C(=N\NC(N)=O)C=C2CC1S(=O)(=O)O (centres undefined) [Carbazochrome sodium sulfonate]

>  <TGT>
HL-1

>  <relative cell viability>
97

$$$$
>  <MOLECULE>
C=CC[N+]1([C@H]2C[C@H]3[C@@H]4CC[C@H]5C[C@H](O)[C@@H](N6CCOCC6)C[C@]5(C)[C@H]4CC[C@]3(C)[C@H]2OC(C)=O)CCCC1 [Rocuronium bromide]

>  <TGT>
HL-1

>  <relative cell viability>
105

$$$$

Reference for the values: the supplement of paper PMC8371130
